tested on: LOX IMVI melanoma; test: NCI-60 one-dose screen, 48 h; details: 10 µM unless noted
Compounds without any hit were thinned out: in the full panel of roughly 83,000, 20% have a hit. Activity calls are given as the source filed them. Rule for the calls: active = growth percent below 10; inactive = the rest.
Possible outcomes: yes = active, no = inactive

>>> category("Cc1nc(-c2cc3ccccc3oc2=O)ccc1C(=O)/C=C/c1ccc(Cl)c(Cl)c1")
"no"
>>> category("CN(C)c1ccc(-c2c(NC(C)(C)C)nc3c(OCCc4ccccc4)cccn23)cc1")
"no"
>>> category("N=C1CC(=O)NN1C(=O)CSc1nc2sc3c(c2c(=O)n1-c1ccc(Cl)cc1)CCCC3")
"no"
>>> category("CCOC(=O)c1c(Nc2ccccc2)nn2c(-c3ccco3)c(C#N)cnc12")
"no"
>>> category("NC(=O)c1cc(-c2ccc3ncnc(N4CCc5cc(F)c(Cl)cc54)c3c2)cnc1N")
"no"
>>> category("Clc1ccc2c(NCCCn3ccnc3)c3oc4ccccc4c3nc2c1")
"no"
>>> category("CCN1CCN(S(=O)(=O)c2oc(-c3ccc(Cl)cc3)nc2C#N)CC1")
"yes"
>>> category("Cc1ccccc1NC(=O)/C=C/c1ccc(OCCOc2ccc3c(C)cc(=O)oc3c2)cc1")
"no"
>>> category("CN1C(=S)N(C)C2C1NN=C1SC(c3ccccc3)=CC(=O)N12 (stereo not given)")
"no"
>>> category("COc1ccc(/C=N/Nc2ccnc3cc(Cl)ccc23)cc1Cl")
"yes"
>>> category("O=C1Nc2cc(Cl)ccc2/C1=C\\c1ccc(OCc2ccc(Br)cc2F)cc1")
"yes"
>>> category("CCN1C(=S)N(c2ccccc2)C2NC(=O)N(/N=C/C=C/c3ccccc3OC)C21 (stereo not given)")
"no"
>>> category("CN(C)CCCOc1c2ccc(Cl)cc2nc2c1oc1ccccc12")
"yes"
>>> category("N[C@@H](Cc1cn(-c2ccnc3ccccc23)nn1)C(=O)O")
"no"
>>> category("COc1ccc(NC(=O)c2sc3nc(-c4cnccn4)cc(-c4cccs4)c3c2N)cc1")
"no"
>>> category("OC1CCN(CCCOc2c3ccc(Cl)cc3nc3c2oc2ccc(Cl)cc23)CC1")
"yes"
>>> category("CS(=O)(=O)c1ccc(-c2nc3ccccn3c2/C=N/Nc2nc(-c3ccc(Br)cc3)cs2)cc1")
"no"
>>> category("CCOc1ccc([C@H]2C(C(=O)c3ccc(Cl)cc3)C3(N[C@@H]2c2ccccc2)C(=O)Nc2ccc(Br)cc23)cc1 (stereo not given in full)")
"yes"
>>> category("N#Cc1c(-c2ccc(F)cc2)nc2c(C#N)c(Nc3ccccc3)nn2c1N")
"no"
>>> category("O=C1c2c(c3c4cc(Br)ccc4[nH]c3c3ccc4ccccc4c23)C(=O)N1CCO")
"no"
>>> category("CC(C)(C)OC(=O)N1C(=O)c2c(c3c4ccccc4[nH]c3c3ccc4ccccc4c23)C1=O")
"no"
>>> category("Clc1ccc2oc3c(NCCCN4CCOCC4)c4ccccc4nc3c2c1")
"yes"
>>> category("O=C(CSc1nc2sc3c(c2c(=O)n1-c1ccc(Cl)cc1)CCCC3)N/N=C/c1ccc(F)cc1")
"no"
>>> category("N/C(=N\\c1nc2c(Cl)cc(Cl)cc2s1)C(Cl)(Cl)Cl")
"yes"
>>> category("CN(C)CCCNc1c2ccc(Cl)cc2nc2c1oc1ccccc12")
"yes"
>>> category("N#Cc1nc(-c2ccccc2)oc1S(=O)(=O)N1CCCCC1")
"yes"
>>> category("COc1ccc2[nH]cc(-c3cc(N)n4nc(-c5c[nH]c6ccc(OC)cc56)cc4n3)c2c1")
"yes"
>>> category("O=C(CSc1nnc(-c2ccc3nc(-c4ccc(Cl)cc4)[nH]c3c2)o1)Nc1ccc(C(=O)/C=C/c2ccc(Cl)cc2)cc1")
"yes"
>>> category("N[C@@H](Cc1cn(-c2c3ccccc3nc3ccccc23)nn1)C(=O)O")
"no"
>>> category("O=C(CCN1C(=O)/C(=C/c2ccccc2)SC1=S)N1CCOCC1")
"yes"
>>> category("CCOC(=O)c1csc(NC(=O)CSc2nc3sc4c(c3c(=O)n2-c2ccc(Cl)cc2)CCCC4)n1")
"no"
>>> category("O=C1Nc2cc(Cl)ccc2/C1=C\\c1ccc(OCc2ccc([N+](=O)[O-])cc2)cc1")
"no"
>>> category("O=c1/c(=C\\c2ccc(-c3ccccc3)o2)sc2nc(-c3ccccc3)nn12")
"no"
>>> category("Cc1cc(=O)oc2cc(OCCCOc3ccc(/C=C/C(=O)Nc4ccc(Cl)cc4)cc3)ccc12")
"no"
>>> category("C/C(=N/NC(N)=S)c1ccc(Nc2nc(SCC(C)C)nc(-c3ccc(F)cc3)c2C#N)cc1")
"yes"
>>> category("Cc1sc2c(c1C)c(=O)nc1c(-c3nc(-c4ccc(F)cc4)no3)n[nH]n12")
"no"
>>> category("O=C(CCN1C(=O)/C(=C/c2ccccc2F)SC1=S)N1CCOCC1")
"yes"
>>> category("CC(=O)Oc1ccccc1C(=O)Nc1cc(C(C)C)ccc1C")
"no"
>>> category("Cc1nc(-c2cc3ccccc3oc2=O)ccc1C(=O)/C=C/c1ccccn1")
"yes"
>>> category("CNC(=O)c1cc(-c2ccc(NC(=O)Nc3ccc(N4CCOCC4)c(C(F)(F)F)c3)cc2)nc2cccnc12")
"no"
